Tested on: HT-29
Protocol description: NCI tumour cell line growth inhibition, 48 h
Activity calls are given as the source filed them. No stated cut-off is given here; in the data, active = GI50 up to about 1.1 µM and inactive = higher.
Result category, one only: active, inactive

Examples with answers:
INSERT INTO assay_data (compound, target_of_assay, class_assignment) VALUES
  ('CCOc1ccc(NC(=O)C(=O)NO)cc1', 'HT-29', 'inactive'),
  ('CCO/N=C\c1ccc2oc(-c3ccccc3)cc(=O)c2c1', 'HT-29', 'active'),
  ('COc1c(-c2nc3ccc(N4CCN(C)CC4)nc3[nH]2)cc(OC)c2[nH]c(CO)nc12', 'HT-29', 'inactive'),
  ('CN(C)CC1CCC(CN(C)C)C(=O)C1=O (stereo not drawn)', 'HT-29', 'inactive'),
  ('CN1C2CCC1CC(C)(O)C2 (stereo not drawn)', 'HT-29', 'inactive');

QUERY: How did this test come out for CC1(C)CC(=O)C(C(=O)C(=O)NC2=C(Cl)C(=O)c3ccccc3C2=O)C(=O)C1 ?
RESULT: inactive

QUERY: Each compound tested received a call. Report the one for CN(N=O)c1ccc(/C=C/c2ccnc3ccccc23)cc1 .
RESULT: inactive

QUERY: Could you kindly confirm the outcome this assay logged for Cc1ccc2nc(-c3ccc(N)c(I)c3)sc2c1 ?
RESULT: inactive
